target_or_test_system: Trypanothione reductase (Leishmania infantum, UniProt A4HSF7)
Sequence (A4HSF7 whole entry): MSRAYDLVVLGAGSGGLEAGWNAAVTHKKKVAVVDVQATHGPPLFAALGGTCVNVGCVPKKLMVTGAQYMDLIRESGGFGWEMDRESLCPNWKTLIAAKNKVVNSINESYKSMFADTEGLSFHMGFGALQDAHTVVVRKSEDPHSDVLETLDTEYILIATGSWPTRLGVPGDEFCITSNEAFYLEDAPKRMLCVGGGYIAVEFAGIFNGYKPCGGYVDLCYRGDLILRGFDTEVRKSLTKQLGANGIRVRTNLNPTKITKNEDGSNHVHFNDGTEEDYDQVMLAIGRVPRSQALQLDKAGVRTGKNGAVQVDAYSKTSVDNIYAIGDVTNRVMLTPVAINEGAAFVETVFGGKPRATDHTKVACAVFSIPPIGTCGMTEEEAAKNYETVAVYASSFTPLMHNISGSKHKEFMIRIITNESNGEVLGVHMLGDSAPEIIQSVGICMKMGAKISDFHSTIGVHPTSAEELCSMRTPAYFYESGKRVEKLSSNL
protocol_notes: Inhibition of HIS-tagged recombinant Leishmania infantum TryR oxidoreductase activity expressed in Escherichia coli in the presence of NADPH by spectrophotometry based DTNB-coupled assay
pIC50: −log10 of the molar value.
Short version: pIC50 at least 5 is True, less is False.

In [3]: df
Out[3]:
                                   compound  class_name
0  C[n+]1nn(-c2ccc(-c3nc(CCc4ccc(-c5ccccc5)cc4)cs3)c(OCCN3CCNC3=O)c2)cc1CCCCN.O=C(O)C(F)(F)F.O=S(=O)([O-])C(F)(F)F        True
1  C[n+]1nn(-c2ccc(-c3nc(-c4ccc(-c5ccccc5)cc4)c(-c4ccccc4)s3)c(OCCN3CCNC3=O)c2)cc1CCCCN        True
2  C[n+]1nn(-c2ccc(-c3nc(-c4ccc(Oc5ccccc5)cc4)c(-c4ccccc4)s3)c(OCCN3CCNC3=O)c2)cc1CCCCN        True
3  C[n+]1nn(-c2ccc(-c3nc(CCC4Cc5ccccc5O4)cs3)c(OCCN3CCNC3=O)c2)cc1CCCCN (stereo unspecified)        True

IN: # check: pIC50 of COc1cc(-n2cc(CCCCN)[n+](C)n2)ccc1-c1nc(CCc2ccccc2)cs1 is greater than or equal to 5
OUT: False

----------
target_or_test_system: Trypanothione reductase (Leishmania infantum, UniProt A4HSF7)
protocol_notes: Competitive inhibition of HIS-FLAG-tagged recombinant Leishmania infantum TryR expressed in Escherichia coli using TS2 substrate assessed as inhibition constant in the presence of NADPH by spectrophotometry based DTNB-coupled assay
measurement_label: Ki (µM)
Unit µM implied. Number only.

IN: Reported Ki for Trypanothione reductase (Leishmania infantum, UniProt A4HSF7), given C[n+]1nn(-c2ccc(-c3nc(CCc4ccccc4)cs3)c(OCCN3CCNC3=O)c2)cc1CCCCN.O=C(O)C(F)(F)F.O=S(=O)([O-])C(F)(F)F ?
OUT: 7.3

----------
target_or_test_system: Trypanothione reductase (Trypanosoma cruzi)
Sequence (P28593 whole entry): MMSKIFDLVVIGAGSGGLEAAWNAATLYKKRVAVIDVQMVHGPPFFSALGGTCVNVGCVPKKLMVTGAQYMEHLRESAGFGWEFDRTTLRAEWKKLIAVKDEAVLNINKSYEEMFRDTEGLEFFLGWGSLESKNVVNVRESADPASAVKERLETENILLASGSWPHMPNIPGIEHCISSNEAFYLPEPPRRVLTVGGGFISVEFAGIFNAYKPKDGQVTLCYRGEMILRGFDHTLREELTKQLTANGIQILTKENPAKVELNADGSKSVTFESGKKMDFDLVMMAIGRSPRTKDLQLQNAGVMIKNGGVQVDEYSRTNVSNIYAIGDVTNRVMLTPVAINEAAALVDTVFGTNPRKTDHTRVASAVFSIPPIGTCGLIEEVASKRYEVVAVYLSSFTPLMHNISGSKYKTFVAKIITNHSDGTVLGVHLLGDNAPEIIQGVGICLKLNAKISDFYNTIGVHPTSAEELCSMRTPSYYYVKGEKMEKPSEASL
protocol_notes: Inhibition of HIS-tagged recombinant Trypanosoma cruzi TryR oxidoreductase activity expressed in Escherichia coli in the presence of NADPH by spectrophotometry based DTNB-coupled assay
measurement_label: IC50 (µM)
A number alone suffices; assume µM.

>>> print(df.to_string())
                                     smiles                     target_or_test_system  measurement_label  result_value
0  C[n+]1nn(-c2ccc(-c3nc(CCc4ccc5ccccc5c4)cs3)c(OCCN3CCNC3=O)c2)cc1CCCCN.O=C(O)C(F)(F)F.O=S(=O)([O-])C(F)(F)F  Trypanothione reductase (Trypanosoma cruzi)               IC50           9.2
1  C[n+]1nn(-c2ccc(-c3nc(CCc4ccccc4)cs3)c(OCCN3CCNC3=O)c2)cc1CCCCN.O=C(O)C(F)(F)F.O=S(=O)([O-])C(F)(F)F  Trypanothione reductase (Trypanosoma cruzi)               IC50          48.5

Please turn your attention to the following entry.
IN: Entry C[n+]1nn(-c2ccc(-c3nc(CCc4ccc(-c5ccccc5)cc4)cs3)c(OCCN3CCNC3=O)c2)cc1CCCCN.O=C(O)C(F)(F)F.O=S(=O)([O-])C(F)(F)F , system Trypanothione reductase (Trypanosoma cruzi): what IC50 was measured?
OUT: 9.2

----------
System: Leishmania infantum
protocol_notes: Antileishmanial activity against GFP-expressing Leishmania infantum intracellular amastigotes infected in human THP-1 derived macrophage cells assessed as reduction in parasite viability measured for 72 hrs by resazurin/alamar blue fluorometric assay
Assay type: functional, organism-based
# EC50 per record follows
Provide the reading as a plain figure in µM.

>>> print(df.to_string())
                                     smiles  target_or_test_system  result_value
0  NCCCCc1cn(-c2ccc(-c3nc(-c4ccccc4)c(-c4ccccc4)s3)c(OCCN3CCNC3=O)c2)nn1    Leishmania infantum          24.2

Next:
IN: // query EC50 value for entry C[n+]1nn(-c2ccc(-c3nc(-c4ccc(Oc5ccccc5)cc4)c(-c4ccccc4)s3)c(OCCN3CCNC3=O)c2)cc1CCCCN
OUT: 15

----------
Listing of entries alongside the reported selectivity ratio.
protocol_notes: Selectivity index, ratio of CC50 for human HepG2 cells to EC50 for GFP-expressing Leishmania infantum intracellular amastigotes infected in human THP-1 derived macrophage cells
Format: toxicity, cell-based
study_conditions: read-out: Ratio CC50/EC50

>>> df
                                     smiles  measurement_label  result_value
0  NCCCCc1cn(-c2ccc(-c3nc(CCc4ccc(-c5ccccc5)cc4)cs3)c(OCCN3CCNC3=O)c2)nn1.O=C(O)C(F)(F)F  selectivity ratio           < 1
1  CCCCCCCCCCCCCCCCOP(=O)([O-])OCC[N+](C)(C)C  selectivity ratio         > 125
2  NCCCc1cn(-c2ccc(-c3nc(CCc4ccc(-c5ccccc5)cc4)cs3)c(OCCN3CCNC3=O)c2)nn1.O=C(O)C(F)(F)F  selectivity ratio           < 1
3  C[n+]1nn(-c2ccc(-c3nc(-c4ccc(Oc5ccccc5)cc4)c(-c4ccccc4)s3)c(OCCN3CCNC3=O)c2)cc1CCCCN  selectivity ratio           2.8
4  NCCCCc1cn(-c2ccc(-c3nc(CCc4cccc5ccccc45)cs3)c(OCCN3CCNC3=O)c2)nn1.O=C(O)C(F)(F)F  selectivity ratio           < 1

IN: Can you look up the measured selectivity ratio of NCCCCc1cn(-c2ccc(-c3nc(-c4ccccc4)c(-c4ccccc4)s3)c(OCCN3CCNC3=O)c2)nn1 for me?
OUT: > 3.1

IN: Sample C[n+]1nn(-c2ccc(-c3nc(CCc4ccc(-c5ccccc5)cc4)cs3)c(OCCN3CCNC3=O)c2)cc1CCCCN.O=C(O)C(F)(F)F.O=S(=O)([O-])C(F)(F)F — what was its selectivity ratio?
OUT: > 8.6

IN: Entry under review: C[n+]1nn(-c2ccc(-c3nc(-c4ccc(-c5ccccc5)cc4)c(-c4ccccc4)s3)c(OCCN3CCNC3=O)c2)cc1CCCCN . Reported selectivity ratio?
OUT: 2.4

IN: Would you kindly share the measured selectivity ratio for NCCCCc1cn(-c2ccc(-c3nc(CCc4ccccc4)cs3)c(OCCN3CCNC3=O)c2)nn1.O=C(O)C(F)(F)F ?
OUT: < 1

IN: Form field: reported selectivity ratio of C[n+]1nn(-c2ccc(-c3nc(CCc4ccc(-c5ccccc5)cc4)c(-c4ccccc4)s3)c(OCCN3CCNC3=O)c2)cc1CCCCN
OUT: 2.2

IN: Returns the measured selectivity ratio for the input compound. Input: C[n+]1nn(-c2ccc(-c3nc(CCc4ccc(-c5ccccc5)cc4)cs3)c(OCCN3CCNC3=O)c2)cc1CCCN.O=C(O)C(F)(F)F.O=S(=O)([O-])C(F)(F)F
OUT: > 10.3

IN: Fill in the blank: the reported selectivity ratio of C[n+]1nn(-c2ccc(-c3nc(CCc4ccc5ccccc5c4)cs3)c(OCCN3CCNC3=O)c2)cc1CCCCN.O=C(O)C(F)(F)F.O=S(=O)([O-])C(F)(F)F is ____.
OUT: > 2.8

IN: I am curious: what selectivity ratio value has been reported for CC[n+]1nn(-c2ccc(-c3nc(CCc4ccc(-c5ccccc5)cc4)cs3)c(OCCN3CCNC3=O)c2)cc1CCCCN ?
OUT: 6.4

----------
target_or_test_system: Trypanothione reductase (Leishmania infantum, UniProt A4HSF7)
protocol_notes: Inhibition of HIS-tagged recombinant Leishmania infantum TryR oxidoreductase activity expressed in Escherichia coli in the presence of NADPH by spectrophotometry based DTNB-coupled assay
In plain terms, low IC50, meaning strictly below 8 µM, gives MET, and everything else gives NOT MET.

Look over these answered cases.
                                     smiles  class_name
0  C[n+]1nn(-c2ccc(-c3nc(CCc4ccccc4)cs3)c(OCC3CCNCC3)c2)cc1CCCCN         MET
1  C[n+]1nn(-c2ccc(-c3nc(-c4ccccc4)c(-c4ccccc4)s3)c(OCCN3CCNC3=O)c2)cc1CCCCN         MET

IN: API: query returns whether the compound falls strictly under 8 µM in IC50. Query: C[n+]1nn(-c2ccc(-c3nc(-c4ccccc4)cs3)c(OCCN3CCNC3=O)c2)cc1CCCCN
OUT: NOT MET

IN: Problem: For the compound C[n+]1nn(-c2ccc(-c3nc(CCc4ccccc4)cs3)c(OCCN3CCNC3=O)c2)cc1CCCN , is IC50 under 8 µM?
OUT: NOT MET

IN: Criterion: IC50 strictly below 8 µM. Is it met by COc1cc(-n2cc(CCCCN)[n+](C)n2)ccc1-c1nc(CCc2ccc(-c3ccccc3)cc2)cs1 ?
OUT: MET

IN: Would you kindly verify if IC50 of C[n+]1nn(-c2ccc(-c3nc(CCc4ccccc4)cs3)c(OCCC3CCNCC3)c2)cc1CCCCN is strictly less than 8 µM?
OUT: MET

IN: Given the entry C[n+]1nn(-c2ccc(-c3nc(CCc4ccc(-c5ccccc5)cc4)c(-c4ccccc4)s3)c(OCCN3CCNC3=O)c2)cc1CCCCN , would its reported IC50 be below 8 µM?
OUT: MET

Cited source: ChEMBL document CHEMBL5247635
